- procedureDetails: viability loss in HepG2 hepatoma cells – cell-based, cherry-picks, set 5, cytotoxicity control, dose response (AID 1053118)
- conditions: ATP luminescence, 72 h; series mostly up to 26 µM
Measured potencies and affinities stand elsewhere. Active and inactive are the calls of the source.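 Rule for the calls: active = fitted half-maximal concentration for ATP signal loss at most twice the top valid dose; inconclusive = flat curve between -70 and -30%, or an invalid fit; inactive = flat within ±30%, wrong direction, or potency past limit.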
measure: outcome

compound | observedMeasurement
Cc1ccc(NC(=O)COC(=O)c2cc(Cl)ccc2[N+](=O)[O-])c(C)c1 | inactive
CC(=O)Nc1cccc(-c2ccnc3c2CC(C)(C(=O)Nc2cccc(C(F)(F)F)c2)O3)c1 (stereo not given) | inactive
O=C(Nc1ccccc1F)N1C[C@H]2[C@@H](c3ccccc31)[C@H](CO)N2C(=O)C1CC1 | inactive
C[C@@H]1CN([C@@H](C)CO)C(=O)c2cc(NC(=O)C3CCCCC3)ccc2O[C@@H]1CN(C)Cc1ccc(-c2ccccc2)cc1 | inactive
Cc1ccc(S(=O)(=O)N2CC[C@H]3[C@H](CO)Nc4ccc(-c5cccc(C(=O)N(C)C)c5)cc4[C@H]32)cc1 | inactive
COC(=O)C[C@@H]1CC[C@H]2[C@@H](COc3ccc(NC(=O)Cc4cccs4)cc3C(=O)N2C)O1 | inactive
COc1cccc(-c2ccc3c(c2)[C@@H]2[C@@H](CCN2S(=O)(=O)c2cccc(OC)c2)[C@H](CO)N3)c1 | inactive
CC(C)Cc1nnc(NC(=O)CSc2nc(N)cc(=O)[nH]2)s1 | inactive
CN(C)c1ccc(-c2ccnc3c2CC(C)(C(=O)NCC2CC2)O3)cc1 (stereo not given) | inactive
OC(CNC1CCCc2ccccc21)COc1c(Cl)cccc1Cl (stereo not given) | inactive
N#Cc1ccc(-c2ccc3c(c2)[C@@H]2[C@@H](CCN2S(=O)(=O)c2cccc(F)c2)[C@@H](CO)N3)cc1 | inactive
C[C@H](CO)N1C[C@H](C)[C@@H](CN(C)C(=O)c2cccc(F)c2)Oc2ncc(-c3ccccc3)cc2C1=O | inactive
CCOc1cccc(C(=O)Nc2ccc(N(CC)CC)cc2)c1 | inactive
C[C@@H]1CN([C@@H](C)CO)C(=O)c2cc(NC(=O)CCCN(C)C)ccc2O[C@@H]1CN(C)Cc1ccc(-c2ccccc2)cc1 | inactive
C[C@@H]1CN([C@H](C)CO)C(=O)c2cc(-c3ccccc3)cnc2O[C@@H]1CN(C)C(=O)c1cccc(F)c1 | inactive
C[C@H](CO)N1C[C@H](C)[C@H](CN(C)C)Oc2cc(C#C[C@@H](C)O)ccc2S1(=O)=O | inactive
CO[C@H]1CN(C)C(=O)c2cc(NC(=O)Nc3cc(Cl)cc(Cl)c3)ccc2OC[C@H](C)NC[C@@H]1C | inactive
C[C@H]1CN([C@@H](C)CO)C(=O)c2cc(NC(=O)C3CCCCC3)ccc2O[C@@H]1CN(C)Cc1ccc(-c2ccccc2)cc1 | inactive
CN1c2ccc(-c3ccccc3)cc2[C@H]2[C@H](CCN2C(=O)CN2CCOCC2)[C@@H]1CO | inactive
O=C(CCNS(=O)(=O)c1cccc2nonc12)NC1CCCc2ccccc21 (stereo not given) | inactive
Cc1ccc([N+](=O)[O-])cc1NC(=O)CN(C(=O)c1ccccc1Cl)C1CCCCC1 | inactive
CN1c2ccc(-c3ccccc3)cc2[C@@H]2[C@@H](CCN2C(=O)CN2CCOCC2)[C@@H]1CO | inactive
O=C(Nc1ccccc1F)N1C[C@@H]2[C@H](c3ccccc31)[C@H](CO)N2C(=O)C1CCOCC1 | inactive
CC(C)CNC(=O)c1coc(=O)c(Br)c1 | inactive
c1ccc2[nH]c(SCc3cn4cccnc4n3)nc2c1 | inactive
C[C@H]1CN([C@@H](C)CO)C(=O)c2cc(NC(=O)C3CCCCC3)ccc2O[C@H]1CN(C)Cc1ccc(-c2ccccc2)cc1 | inactive
N#Cc1ccc(-c2ccc3c(c2)[C@H]2[C@H](CCN2S(=O)(=O)c2cccc(F)c2)[C@H](CO)N3)cc1 | inactive
COc1ccccc1N(CC(=O)N(CC(C)C)CC(C)C)S(=O)(=O)c1cccs1 | inactive
O=S(=O)(c1ccccc1F)N1CC[C@@H]2[C@H]1c1cc(-c3cccc(F)c3)ccc1N[C@@H]2CO | inactive
O=C(OCC(O)C(O)COC(=O)c1ccccc1)c1ccccc1 (stereo not given) | inactive
CN(C)C(=O)c1ccc(-c2ccc3c(c2)[C@@H]2[C@@H](CCN2C(=O)c2ccc(F)cc2)[C@H](CO)N3C)cc1 | inactive
CC(NC(=O)CSc1ccc(S(=O)(=O)N2CCOCC2)cn1)c1ccc(Cl)cc1Cl (stereo not given) | inactive
C[C@@H]1CN([C@H](C)CO)C(=O)c2cc(NC(=O)C3CCCCC3)ccc2O[C@@H]1CN(C)Cc1ccc(-c2ccccc2)cc1 | inactive
COc1ccc(C)cc1N(CC(=O)Nc1cccc(N(C)S(C)(=O)=O)c1)S(C)(=O)=O | inactive
C[C@H](O)C#Cc1ccc2c(c1)O[C@H](CN(C)C)[C@@H](C)CN([C@H](C)CO)S2(=O)=O | inactive
